tested.target: Keap1 C273S (Homo sapiens, UniProt Q14145, C273S)
Construct: His (N)
Sequence (Q14145 whole entry C273S): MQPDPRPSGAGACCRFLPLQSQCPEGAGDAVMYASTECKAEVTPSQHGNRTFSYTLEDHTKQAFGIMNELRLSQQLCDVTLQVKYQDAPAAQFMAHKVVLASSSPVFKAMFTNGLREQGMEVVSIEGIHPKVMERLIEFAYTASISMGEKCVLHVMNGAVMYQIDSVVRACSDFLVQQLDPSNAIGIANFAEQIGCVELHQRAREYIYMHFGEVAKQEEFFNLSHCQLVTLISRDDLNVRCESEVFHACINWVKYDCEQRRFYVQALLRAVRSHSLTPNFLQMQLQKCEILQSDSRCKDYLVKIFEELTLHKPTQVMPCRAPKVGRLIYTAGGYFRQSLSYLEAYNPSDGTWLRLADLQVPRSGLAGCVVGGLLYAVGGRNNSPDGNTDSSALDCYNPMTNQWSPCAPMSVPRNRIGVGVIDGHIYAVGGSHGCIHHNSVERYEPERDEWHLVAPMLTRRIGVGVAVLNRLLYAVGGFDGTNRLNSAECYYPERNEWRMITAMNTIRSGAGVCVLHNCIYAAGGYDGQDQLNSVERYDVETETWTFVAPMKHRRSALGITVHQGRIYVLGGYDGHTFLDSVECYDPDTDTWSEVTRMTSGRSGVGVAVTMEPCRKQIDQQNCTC
assay.info: ITC titration of PBA with Keap1-C273S
test.settings: 25 ℃

{"compound": "C=C(COC(=O)C=Cc1ccc(O)c(O)c1)C(O)COC1OC(CO)C(O)C(O)C1O (stereo not shown) [PBA, pubescenoside A]", "Kd [µM]": 3.8}

* * *

tested.target: Keap1 C77S (Homo sapiens, UniProt Q14145, C77S)
Construct: His (N)
Sequence (Q14145 whole entry C77S): as the sequence (Q14145 whole entry C273S) above, with C77S, S273C counted along it
assay.info: ITC titration of PBA with Keap1-C77S
test.settings: 25 ℃
pKd: −log10 of the molar value.
endpoint.name: pKd

{"compound": "C=C(COC(=O)C=Cc1ccc(O)c(O)c1)C(O)COC1OC(CO)C(O)C(O)C1O (stereo not shown) [PBA, pubescenoside A]", "tested.target": "Keap1 C77S (Homo sapiens, UniProt Q14145, C77S)", "measured.value": 4.71}
